Just for reference, PubChem BioAssay AID504544 is where these values come from.

Each record here notes measured pIC50.
Test system: S. cerevisiae tim23-1 mutant growth, luminescence
Assay: tim23-1 yeast growth suppression potency – luminescence, uHTS hits, counter-screen for tim10-1 yeast inhibitor project, dose response (AID 504544)
Schema: pIC50 number; meaning minus log10 of the concentration expressed in molar units.

molecule | pIC50
COc1ccc(Br)cc1[C@H]1[C@@H]2C=CCC[C@@]2(C)C(=O)N1Cc1ccccc1 | 4.84

Problem: Bench note: what pIC50 did `O=C(O)/C=C/C(=O)c1ccc2c(c1)CCc1ccccc1-2` show?
Solution: 5.29

Problem: Bench note: what pIC50 did `COc1ccc(-c2[nH]ncc2N=Nc2ccccc2)cc1` show?
Solution: 5.03

Problem: Bench note: what pIC50 did Cc1ccc(F)c([C@H]2C3C=CCC(c4ccccc4)C3C(=O)N2Cc2ccccc2)c1 (stereo not given in full) show?
Solution: 4.83

* * *

Test system: S. cerevisiae tim23-1 mutant growth, luminescence
Experiment: tim23-1 yeast growth suppression potency – luminescence, uHTS hits, counter-screen for tim10-1 yeast inhibitor project, dose response (AID 504544)
parameter: IC50

Here's what some known entries look like.
cpd.smiles | IC50
CCOC(=O)c1c(CSc2ccc(C)cc2)n(C)c2cc(Br)c(O)c(CN(C)C)c12 | 19.9 µM
Fc1c(F)c(C(F)(F)F)c(F)c(F)c1N/N=C\c1cccs1 | 7.37 µM
Cc1ccc(CNC(=O)c2ccc(Cn3nc(C)c(Cl)c3C)o2)cc1 | 17.4 µM
O=C(c1cc(COc2ccc(F)cc2Cl)on1)N1CCN(c2cnccn2)CC1 | 5.45 µM

Problem: Bench note: what IC50 did `COc1cc(/C=C/c2ccc3cccc(O)c3n2)c(Br)cc1O` show?
Solution: 18.2 µM

Problem: Bench note: what IC50 did `Cc1ccc(NC(=S)/N=C(\N)Nc2nc(C)c3cc(C)ccc3n2)c(C)c1` show?
Solution: 17 µM

* * *

Each record here notes measured pIC50.
Tested on: S. cerevisiae tim23-1 mutant growth, luminescence
Experiment: tim23-1 yeast growth suppression potency – luminescence, uHTS hits, counter-screen for tim10-1 yeast inhibitor project, dose response (AID 504544)
Schema: pIC50 number; meaning minus log10 of the concentration expressed in molar units.

Here's what some known entries look like.
cpd.smiles | obs.value
COc1ccc(/C(N)=N/OC(=O)c2ccc3c(c2)OCO3)cc1 | 5.12
Cc1cc(C)c(CSc2ncc(-c3ccc([N+](=O)[O-])cc3)[nH]2)c(C)c1 | 4.76
Cc1ccc(NC(=O)c2ccc(Cl)c(N3C(=O)C=CC3=O)c2)cc1 | 5.38
CCCn1c(CC)nc([N+](=O)[O-])c1S(=O)(=O)c1ccccc1 | 5.18
O=[N+]([O-])c1ccccc1N/N=C/c1c[nH]c2ccccc12 | 4.80

Problem: Bench note: what pIC50 did `COc1ccc(C(=O)O/N=C(\N)c2ccccc2Cl)cc1OC` show?
Solution: 4.92
